Emax overview
target: rat TRPA1 (Rattus norvegicus, UniProt Q6RI86); construct: expressed in transfected cells; assay: cell-based; conditions: HEK293, read-out: TRPA1 Eff. %;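 on Emax: percent of maximal Ca2+ influx with 100 µM AITC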
Sequence (Q6RI86 whole entry): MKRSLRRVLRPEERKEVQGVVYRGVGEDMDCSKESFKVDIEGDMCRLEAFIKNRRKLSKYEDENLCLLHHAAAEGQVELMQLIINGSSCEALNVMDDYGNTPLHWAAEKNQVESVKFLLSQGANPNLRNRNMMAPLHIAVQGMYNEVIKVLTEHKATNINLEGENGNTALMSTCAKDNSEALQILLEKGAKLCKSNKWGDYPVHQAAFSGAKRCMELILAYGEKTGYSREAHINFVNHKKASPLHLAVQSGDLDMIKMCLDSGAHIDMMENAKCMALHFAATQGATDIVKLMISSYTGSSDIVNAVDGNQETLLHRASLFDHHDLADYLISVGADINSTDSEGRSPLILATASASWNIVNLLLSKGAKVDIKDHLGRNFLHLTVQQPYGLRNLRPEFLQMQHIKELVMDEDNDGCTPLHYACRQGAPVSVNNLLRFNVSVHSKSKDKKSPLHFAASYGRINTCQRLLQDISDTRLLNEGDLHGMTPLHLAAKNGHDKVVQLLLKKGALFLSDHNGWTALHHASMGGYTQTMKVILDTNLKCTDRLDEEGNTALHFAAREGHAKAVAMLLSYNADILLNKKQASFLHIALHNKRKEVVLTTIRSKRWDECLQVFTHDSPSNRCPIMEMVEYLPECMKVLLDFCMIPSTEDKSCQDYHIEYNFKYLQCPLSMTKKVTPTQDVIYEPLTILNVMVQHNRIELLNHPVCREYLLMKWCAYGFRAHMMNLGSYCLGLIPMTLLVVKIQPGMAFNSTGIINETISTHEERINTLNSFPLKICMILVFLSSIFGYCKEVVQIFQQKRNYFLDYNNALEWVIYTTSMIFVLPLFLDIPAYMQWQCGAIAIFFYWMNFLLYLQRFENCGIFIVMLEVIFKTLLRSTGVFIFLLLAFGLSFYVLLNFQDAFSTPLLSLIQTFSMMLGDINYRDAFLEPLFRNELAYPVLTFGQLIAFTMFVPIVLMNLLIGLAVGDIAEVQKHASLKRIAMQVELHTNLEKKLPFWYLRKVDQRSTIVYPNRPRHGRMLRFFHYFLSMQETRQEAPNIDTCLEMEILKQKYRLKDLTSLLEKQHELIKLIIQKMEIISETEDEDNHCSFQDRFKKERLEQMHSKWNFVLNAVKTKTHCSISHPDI

compound	inequality operator	Emax (%)
O=C(Nc1ccc(O)cc1)c1cc2ccccc2[nH]1 [5a]	<	10
Cn1c(C(=O)Nc2ccc(O)cc2)cc2ccccc21 [6a]	=	42.9
O=C(NCc1ccccc1)c1cc2ccccc2[nH]1 [5b, N-Benzyl-1H-indole-2-carboxamide]	<	10
COc1ccc(CNC(=O)c2cc3ccccc3n2C)cc1 [6e]	=	81.3
Cn1c(C(=O)NCc2ccc(O)cc2)cc2ccccc21 [6d]	<	10
COc1cc(CNC(=O)c2cc3ccccc3n2C)ccc1O [6g]	=	59.8
O=C(NCc1ccc(O)cc1)c1cc2ccccc2[nH]1 [5c]	<	10
COc1ccc(CNC(=O)c2cc3ccccc3[nH]2)cc1 [5d]	=	39.1
Cn1c(C(=O)NCc2ccccc2)cc2ccccc21 [6c]	<	10
Cn1c(C(=O)Nc2ccc(F)cc2)cc2ccccc21 [6b]	=	78.6
O=C(NCc1ccc(F)cc1)c1cc2ccccc2[nH]1 [5e]	=	42.8

###

biological target: human TRPV1 (Homo sapiens); construct: expressed in transfected cells; experiment: cell-based
IC50 overview
measured endpoint: IC50 (µM)

compound	inequality operator	value measured
O=C(NCc1ccc(F)c(F)c1)c1cc2ccccc2[nH]1	>	100
Cn1c(C(=O)Nc2ccc(O)cc2)cc2ccccc21	=	0.72
O=C(NCc1ccc(F)cc1)c1cc2ccccc2[nH]1	>	100
Cn1c(C(=O)NCc2ccccc2)cc2ccccc21	>	50
Cn1c(C(=O)NCc2ccc(Cl)c(Cl)c2)cc2ccccc21	=	16.4
Cn1c(C(=O)NCc2ccc(F)c(F)c2)cc2ccccc21	>	100
O=C(NCc1ccc(Cl)c(Cl)c1)c1cc2ccccc2[nH]1	>	100
Cn1c(C(=O)Nc2ccc(F)cc2)cc2ccccc21	=	6.9
Cn1c(C(=O)NCc2ccc(F)cc2)cc2ccccc21	>	100
O=C(Nc1ccc(O)cc1)c1cc2ccccc2[nH]1	=	10
Cn1c(C(=O)NCCc2ccc(O)c(O)c2)cc2ccccc21	=	0.26
COc1cc(CNC(=O)c2cc3ccccc3[nH]2)ccc1O	=	1.03
O=C(NCc1ccccc1)c1cc2ccccc2[nH]1 [5b, N-Benzyl-1H-indole-2-carboxamide]	>	100
COc1ccc(CNC(=O)c2cc3ccccc3[nH]2)cc1	>	50
Cn1c(C(=O)NCc2ccc(O)cc2)cc2ccccc21	=	19.2
O=C(NCc1ccc(O)cc1)c1cc2ccccc2[nH]1	>	50
COc1ccc(CNC(=O)c2cc3ccccc3n2C)cc1	>	10
O=C(NCCc1ccc(O)c(O)c1)c1cc2ccccc2[nH]1	=	2.1

###

target: rat TRPA1 (Rattus norvegicus)
IC50 overview

compound	IC50
O=C(NCc1ccccc1)c1cc2ccccc2[nH]1 [5b, N-Benzyl-1H-indole-2-carboxamide]	> 100 µM
O=C(NCc1ccc(O)cc1)c1cc2ccccc2[nH]1 [5c]	> 100 µM
Cn1c(C(=O)Nc2ccc(F)cc2)cc2ccccc21 [6b]	5.2 µM

###

biological target: UniProt Q6RI86
pIC50: −log10 of the molar value.
pIC50 overview

item smiles	pIC50
Cn1c(C(=O)NCc2ccccc2)cc2ccccc21	< 4.30
Cn1c(C(=O)NCc2ccc(F)cc2)cc2ccccc21	4.47
Cn1c(C(=O)NCc2ccc(F)c(F)c2)cc2ccccc21	4.49
COc1ccc(CNC(=O)c2cc3ccccc3[nH]2)cc1	< 4.00
COc1ccc(CNC(=O)c2cc3ccccc3n2C)cc1	< 4.30
COc1cc(CNC(=O)c2cc3ccccc3n2C)ccc1O	< 4.00
O=C(Nc1ccc(O)cc1)c1cc2ccccc2[nH]1	< 4.00
O=C(NCc1ccc(F)c(F)c1)c1cc2ccccc2[nH]1	< 4.30
O=C(NCc1ccc(F)cc1)c1cc2ccccc2[nH]1	< 4.30
Cn1c(C(=O)NCc2ccc(O)cc2)cc2ccccc21	< 4.00
Cn1c(C(=O)Nc2ccc(O)cc2)cc2ccccc21	< 4.30

###

target: human TRPV1 (Homo sapiens); construct: expressed in transfected cells; assay: cell-based; details: HEK293, read-out: TRPV1 Eff. %;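 on Emax: percent of maximal Ca2+ influx with 4 µM ionomycin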
Emax overview
measured endpoint: Emax

compound	value measured
COc1ccc(CNC(=O)c2cc3ccccc3[nH]2)cc1	< 10%
O=C(NCCc1ccc(O)c(O)c1)c1cc2ccccc2[nH]1	37.3%
O=C(NCc1ccc(O)cc1)c1cc2ccccc2[nH]1	47.2%
Cn1c(C(=O)NCc2ccc(F)c(F)c2)cc2ccccc21	< 10%
Cn1c(C(=O)Nc2ccc(F)cc2)cc2ccccc21	34.4%
COc1cc(CNC(=O)c2cc3ccccc3[nH]2)ccc1O	66.8%
O=C(NCc1ccc(F)c(F)c1)c1cc2ccccc2[nH]1	< 10%
Cn1c(C(=O)NCCc2ccc(O)c(O)c2)cc2ccccc21	> 60%
O=C(NCc1ccccc1)c1cc2ccccc2[nH]1 [5b, N-Benzyl-1H-indole-2-carboxamide]	< 10%
COc1cc(CNC(=O)c2cc3ccccc3n2C)ccc1O	> 60%
Cn1c(C(=O)NCc2ccc(Cl)c(Cl)c2)cc2ccccc21	< 10%

###

biological target: human TRPV1 (Homo sapiens, UniProt Q8NER1); construct: expressed in transfected cells; assay: cell-based; conditions: read-out: TRPV1 IC50 (antagonism/desensitization)
Sequence (Q8NER1 whole entry): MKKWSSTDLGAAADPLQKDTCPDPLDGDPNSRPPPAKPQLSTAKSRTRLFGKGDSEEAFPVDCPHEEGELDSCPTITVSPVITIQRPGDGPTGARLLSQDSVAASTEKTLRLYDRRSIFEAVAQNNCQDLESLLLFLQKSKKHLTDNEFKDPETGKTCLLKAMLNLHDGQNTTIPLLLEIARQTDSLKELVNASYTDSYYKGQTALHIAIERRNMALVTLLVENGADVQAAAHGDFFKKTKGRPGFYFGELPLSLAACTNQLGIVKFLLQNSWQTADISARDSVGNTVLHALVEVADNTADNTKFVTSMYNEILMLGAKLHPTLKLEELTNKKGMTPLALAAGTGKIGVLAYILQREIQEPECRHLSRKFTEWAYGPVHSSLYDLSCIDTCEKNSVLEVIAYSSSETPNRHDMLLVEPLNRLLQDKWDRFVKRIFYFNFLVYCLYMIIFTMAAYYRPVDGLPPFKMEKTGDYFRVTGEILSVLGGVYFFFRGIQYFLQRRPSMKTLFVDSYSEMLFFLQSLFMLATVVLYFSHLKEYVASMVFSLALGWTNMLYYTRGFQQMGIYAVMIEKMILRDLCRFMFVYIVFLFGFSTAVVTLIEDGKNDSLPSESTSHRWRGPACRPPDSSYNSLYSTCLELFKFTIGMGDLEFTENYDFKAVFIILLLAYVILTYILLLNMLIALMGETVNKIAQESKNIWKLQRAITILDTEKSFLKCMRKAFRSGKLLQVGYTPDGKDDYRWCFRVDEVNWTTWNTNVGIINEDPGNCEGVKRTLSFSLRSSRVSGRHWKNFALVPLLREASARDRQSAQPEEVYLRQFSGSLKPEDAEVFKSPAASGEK

molecule	study target	IC50, nM
COc1cc(CNC(=O)c2cc3ccccc3n2C)ccc1O [6g]	human TRPV1 (Homo sapiens, UniProt Q8NER1)	53.5

###

molecular target: human TRPV1 (Homo sapiens, UniProt Q8NER1); construct: expressed in transfected cells; assay: cell-based; settings: HEK293, read-out: TRPV1 Eff. %;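 on Emax: percent of maximal Ca2+ influx with 4 µM ionomycin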

item smiles	Emax
Cn1c(C(=O)NCc2ccc(F)cc2)cc2ccccc21	< 10%
Cn1c(C(=O)NCc2ccccc2)cc2ccccc21	< 10%
O=C(NCc1ccc(Cl)c(Cl)c1)c1cc2ccccc2[nH]1	< 10%
O=C(NCc1ccc(F)cc1)c1cc2ccccc2[nH]1	< 10%
O=C(Nc1ccc(O)cc1)c1cc2ccccc2[nH]1	54%
Cn1c(C(=O)NCc2ccc(O)cc2)cc2ccccc21	27.6%
Cn1c(C(=O)Nc2ccc(O)cc2)cc2ccccc21	> 60%
COc1ccc(CNC(=O)c2cc3ccccc3n2C)cc1	< 10%
